TARGET_OR_SYSTEM: human JAK1 (a.a. 837-1142) (Homo sapiens, UniProt P23458)
Construct: human JAK1 (a.a. 837-1142); His tag (N); made in house; host or cells: insect cells (baculovirus)
Sequence (P23458 849-1154): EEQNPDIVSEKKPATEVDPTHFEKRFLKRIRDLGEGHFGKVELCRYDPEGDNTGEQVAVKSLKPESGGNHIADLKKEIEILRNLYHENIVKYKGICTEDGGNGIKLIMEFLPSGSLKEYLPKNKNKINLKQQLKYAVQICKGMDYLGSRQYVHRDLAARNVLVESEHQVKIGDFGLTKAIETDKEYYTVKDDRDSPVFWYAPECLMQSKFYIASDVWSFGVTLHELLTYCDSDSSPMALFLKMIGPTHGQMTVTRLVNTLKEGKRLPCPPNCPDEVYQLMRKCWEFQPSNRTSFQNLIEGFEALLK
RUN_DESCRIPTION: In vitro JAK kinase assay (HTRF, phosphorylation of a biotinylated peptide), JAK1
Type: biochemical
RECORDED_CONDITIONS: Table B1; read-out: JAK1 IC50
Structures can show the parent of a compound that is named as a salt.
PROPERTY_LABEL: IC50 (nM)

For orientation, consider the following solved cases.
Cn1cc(C(=O)N2CC[C@H](NC(=O)Nc3ccc4cc3CCc3cncc(c3)Nc3ncc(Cl)c(n3)N4)C2)cn1 [Example B269, bis(trifluoroacetate)]    13
CCc1cccc(NC(=O)Nc2ccc3cc2CCc2cccc(c2)Nc2ncc(Cl)c(n2)N3)c1 [Example B99, trifluoroacetate]    7
CC(C)S(=O)(=O)Nc1ccc2cc1CCc1cccc(c1)Nc1ncc(Cl)c(n1)N2 [Example B143, trifluoroacetate]    11

P = CC(=O)N1CCC(CN(C)Cc2ccc3cc2CCc2cncc(c2)Nc2ncc(Cl)c(n2)N3)CC1 [Example B346, tris(trifluoroacetate)]
Q = O=C(Nc1ccc2cc1CCc1cccc(c1)Nc1ncc(Cl)c(n1)N2)N[C@H]1CCN(C(=O)C2CC2)C1 [Example B228, trifluoroacetate]
Query block: Two entries are listed, P and Q . Which one carries the higher IC50? Answer by stating the label of the chosen item.
Result block: P

###

TARGET_OR_SYSTEM: Recombinant Human Anaplastic Lymphoma Kinase (Homo sapiens, UniProt Q9UM73)
Construct: purchased Invitrogen, Carlsbad, Calif
Sequence (Q9UM73 19-1620): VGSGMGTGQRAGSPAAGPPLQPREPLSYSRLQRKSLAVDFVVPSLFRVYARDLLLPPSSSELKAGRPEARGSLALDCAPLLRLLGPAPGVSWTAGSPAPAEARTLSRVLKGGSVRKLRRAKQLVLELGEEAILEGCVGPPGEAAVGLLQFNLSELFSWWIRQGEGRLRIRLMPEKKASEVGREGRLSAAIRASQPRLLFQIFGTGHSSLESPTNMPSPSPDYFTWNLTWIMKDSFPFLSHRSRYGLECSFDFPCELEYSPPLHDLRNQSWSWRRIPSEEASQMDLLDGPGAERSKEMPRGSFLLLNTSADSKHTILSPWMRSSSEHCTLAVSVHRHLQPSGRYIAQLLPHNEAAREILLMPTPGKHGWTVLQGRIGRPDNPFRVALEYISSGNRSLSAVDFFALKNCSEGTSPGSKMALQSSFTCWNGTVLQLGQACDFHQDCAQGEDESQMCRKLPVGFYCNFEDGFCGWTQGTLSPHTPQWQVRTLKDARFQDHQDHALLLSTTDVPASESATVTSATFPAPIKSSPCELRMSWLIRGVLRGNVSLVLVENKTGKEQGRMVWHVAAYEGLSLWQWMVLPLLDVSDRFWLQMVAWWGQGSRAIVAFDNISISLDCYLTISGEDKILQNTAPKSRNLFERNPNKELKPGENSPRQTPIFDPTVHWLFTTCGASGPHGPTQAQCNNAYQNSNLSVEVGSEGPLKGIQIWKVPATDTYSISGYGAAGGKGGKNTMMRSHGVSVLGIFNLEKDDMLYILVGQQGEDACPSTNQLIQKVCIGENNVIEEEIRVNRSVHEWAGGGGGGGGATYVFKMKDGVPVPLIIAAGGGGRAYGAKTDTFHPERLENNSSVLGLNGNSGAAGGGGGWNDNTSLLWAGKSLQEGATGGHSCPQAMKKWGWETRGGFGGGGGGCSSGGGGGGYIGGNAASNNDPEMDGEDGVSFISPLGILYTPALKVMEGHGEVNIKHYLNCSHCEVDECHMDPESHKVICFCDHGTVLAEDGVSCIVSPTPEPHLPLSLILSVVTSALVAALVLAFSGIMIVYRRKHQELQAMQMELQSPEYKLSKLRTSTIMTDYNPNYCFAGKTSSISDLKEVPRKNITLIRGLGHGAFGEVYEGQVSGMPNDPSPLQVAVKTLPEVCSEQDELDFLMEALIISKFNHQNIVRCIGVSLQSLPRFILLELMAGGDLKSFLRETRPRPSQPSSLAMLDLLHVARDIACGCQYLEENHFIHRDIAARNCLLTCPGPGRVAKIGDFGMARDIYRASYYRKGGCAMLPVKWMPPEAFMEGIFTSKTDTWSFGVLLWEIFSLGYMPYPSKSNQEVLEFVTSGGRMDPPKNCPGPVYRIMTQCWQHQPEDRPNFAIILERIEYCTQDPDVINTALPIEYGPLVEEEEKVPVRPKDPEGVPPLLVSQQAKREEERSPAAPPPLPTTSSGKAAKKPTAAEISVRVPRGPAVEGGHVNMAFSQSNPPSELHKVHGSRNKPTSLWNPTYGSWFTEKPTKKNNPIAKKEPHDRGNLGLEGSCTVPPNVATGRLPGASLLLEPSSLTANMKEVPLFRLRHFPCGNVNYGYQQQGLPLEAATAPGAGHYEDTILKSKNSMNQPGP
RUN_DESCRIPTION: ALK HTRF kinase assay
Format: biochemical
RECORDED_CONDITIONS: compound at 500 nM or 1 mM; 90 μM ATP
Structures can show the parent of a compound that is named as a salt.
PROPERTY_LABEL: ALK % of inhibition at a concentration of 500 nM or 1 mM (%)

Below, 4 compounds whose answers are already recorded.
Cc1cc(C(=O)N2CCC(CC(=O)Nc3ccc4cc3CCc3cccc(c3)Nc3ncc(Cl)c(n3)N4)CC2)no1 [Example A86, trifluoroacetate]    32
CC(C)S(=O)(=O)N1CCC(CC(=O)Nc2ccc3cc2CCc2cncc(c2)Nc2ncc(Cl)c(n2)N3)CC1 [Example A97, bis(trifluoroacetate)]    31
O=C(CC1CCN(C(=O)c2ccno2)CC1)Nc1ccc2cc1CCc1cncc(c1)Nc1ncc(Cl)c(n1)N2 [Example A128, bis(trifluoroacetate)]    34
CS(=O)(=O)N1CCC(CC(=O)Nc2ccc3cc2CCc2cncc(c2)Nc2ncc(Cl)c(n2)N3)C1 (stereo not drawn) [Example A91, bis(trifluoroacetate)]    29

a = COc1ccc(S(=O)(=O)N2CCC(CC(=O)Nc3ccc4cc3CCc3cncc(c3)Nc3ncc(Cl)c(n3)N4)CC2)cc1 [Example A197, bis(trifluoroacetate)]
b = O=C(Nc1ccc2cc1CCc1cccc(c1)Nc1ncc(Cl)c(n1)N2)C1CCN(C(=O)c2ccc3c(c2)OCO3)CC1 [Example A31, trifluoroacetate]
Query block: Lower ALK % of inhibition at a concentration of 500 nM or 1 mM: a or b ? Let me know the label of the one you choose.
Result block: b

###

TARGET_OR_SYSTEM: human JAK2 (a.a. 828-1132) (Homo sapiens)
Construct: JAK2 (a.a. 828-1132); His tag (N); made in house; host or cells: insect cells (baculovirus)
Sequence (O60674 828-1132): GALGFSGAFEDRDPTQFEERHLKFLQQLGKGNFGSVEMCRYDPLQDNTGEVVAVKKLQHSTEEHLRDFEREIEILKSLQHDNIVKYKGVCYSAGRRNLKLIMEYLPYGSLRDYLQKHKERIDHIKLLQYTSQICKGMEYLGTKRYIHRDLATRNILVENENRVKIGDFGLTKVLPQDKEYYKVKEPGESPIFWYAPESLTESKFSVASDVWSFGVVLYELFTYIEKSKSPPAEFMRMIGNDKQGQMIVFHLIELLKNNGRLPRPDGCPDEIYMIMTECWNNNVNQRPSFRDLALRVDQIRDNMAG
RUN_DESCRIPTION: In vitro JAK kinase assay (HTRF, phosphorylation of a biotinylated peptide), JAK2
Format: biochemical
RECORDED_CONDITIONS: Table D1
PROPERTY_LABEL: IC50

Some entries whose results are on file:
O=C(COc1ccc2cc1CCc1cncc(c1)Nc1ncc(Cl)c(n1)N2)N1CCN(c2nccc3occc23)CC1 [Example D245, tris(trifluoroacetate)]    > 400 nM
O=C(COc1ccc2cc1CCc1cncc(c1)Nc1ncc(Cl)c(n1)N2)N1CCN(c2cccc(C(F)(F)F)n2)CC1 [Example D248, tris(trifluoroacetate)]    > 400 nM

Now look at this entry.
Query block: For the compound shown here, O=C(Cc1ccccc1)N1CCC(Nc2ccc3cc2CCc2cncc(c2)Nc2ncc(Cl)c(n2)N3)CC1 [Example D159, tris(trifluoroacetate)] , give the reported IC50.
Result block: > 400 nM

###

TARGET_OR_SYSTEM: human JAK3 (a.a. 781-1124) (Homo sapiens, UniProt P52333)
Construct: JAK3 (a.a. 781-1124); His tag (N); made in house; host or cells: insect cells (baculovirus)
Sequence (P52333 781-1124): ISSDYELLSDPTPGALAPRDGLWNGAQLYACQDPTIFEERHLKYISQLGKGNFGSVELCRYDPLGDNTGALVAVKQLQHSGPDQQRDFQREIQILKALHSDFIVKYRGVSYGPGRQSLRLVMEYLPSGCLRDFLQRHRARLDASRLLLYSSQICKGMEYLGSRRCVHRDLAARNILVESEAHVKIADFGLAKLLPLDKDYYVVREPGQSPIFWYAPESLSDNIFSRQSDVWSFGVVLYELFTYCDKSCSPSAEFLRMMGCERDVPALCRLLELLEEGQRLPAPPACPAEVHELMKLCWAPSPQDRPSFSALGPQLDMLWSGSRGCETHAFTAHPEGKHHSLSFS
RUN_DESCRIPTION: In vitro JAK kinase assay (HTRF, phosphorylation of a biotinylated peptide), JAK3
Assay type: biochemical
RECORDED_CONDITIONS: Table B1
pIC50: −log10 of the molar value. Where a name gives a salt, the structure may show the parent alone.
Recorded measurements of pIC50, one per entry

// below: answered molecules
O=C(Nc1cc2cc(c1)Nc1nc(ncc1Cl)Nc1cccc(c1)CC2)c1nc2ccccc2s1 [Example B204, trifluoroacetate]    < 6.00
O=C(Nc1ccc2cc1CCc1cncc(c1)Nc1ncc(Cl)c(n1)N2)N[C@H]1CCN(c2nc3cccnc3o2)C1 [Example B275, tris(trifluoroacetate)]    < 5.00
O=C(Nc1ccc2cc1CCc1cccc(c1)Nc1ncc(Cl)c(n1)N2)NC12CC3CC(CC(C3)C1)C2 [Example B127, trifluoroacetate]    6.74
O=C(Nc1ccc2cc1CCc1cccc(c1)Nc1ncc(Cl)c(n1)N2)NC1CCCCC1 [Example B119, trifluoroacetate]    7.32
CC(=O)N1CC[C@H](NC(=O)Nc2ccc3cc2CCc2cccc(c2)Nc2ncc(Cl)c(n2)N3)C1 [Example B168, trifluoroacetate]    7.17
Cc1ncoc1C(=O)N1CCC(CN(C)Cc2ccc3cc2CCc2cncc(c2)Nc2ncc(Cl)c(n2)N3)CC1 [Example B347, tris(trifluoroacetate)]    < 6.40
O=C(c1coc(Nc2ccc3cc2CCc2cccc(c2)Nc2ncc(Cl)c(n2)N3)n1)N1CCN2CCCC2C1 (stereo not drawn)    < 6.70
O=C(Nc1ccc2cc1CCc1cncc(c1)Nc1ncc(Cl)c(n1)N2)N1CCN(c2ccccc2Cl)CC1 [Example B305, bis(trifluoroacetate)]    < 6.40
O=C(Nc1ccc2cc1CCc1cncc(c1)Nc1ncc(Cl)c(n1)N2)N1CCC(S(=O)(=O)c2ccccc2)C1 (stereo not drawn) [Example B321, bis(trifluoroacetate)]    < 6.40
O=C(Nc1ccc2cc1CCc1cncc(c1)Nc1ncc(Cl)c(n1)N2)N1CCN(c2cnccn2)CC1 [Example B294, (trifluoroacetate)]    < 6.70

Query block: Data request, read-out pIC50, for Cc1cc(C(=O)N2CCC(C(=O)N(C)Cc3ccc4cc3CCc3cncc(c3)Nc3ncc(Cl)c(n3)N4)CC2)no1 [Example B335, bis(trifluoroacetate)]
Result block: < 6.70

Query block: Which pIC50 value is on record for Cc1cnc2nc1Nc1cccc(c1)/C=C\c1cccc(c1)N2 [Example B1, trifluoroacetate] ?
Result block: < 7.00

###

TARGET_OR_SYSTEM: human JAK3 (a.a. 781-1124) (Homo sapiens, UniProt P52333)
Construct: JAK3 (a.a. 781-1124); His tag (N); made in house; host or cells: insect cells (baculovirus)
RUN_DESCRIPTION: In vitro JAK kinase assay (HTRF, phosphorylation of a biotinylated peptide), JAK3
Type: biochemical
RECORDED_CONDITIONS: Table B1
pIC50: −log10 of the molar value. Counter-ions that a name gives are not always drawn.
// reported pIC50 per item

Consider the following illustrative entries.
CN(Cc1ccc2cc1CCc1cncc(c1)Nc1ncc(Cl)c(n1)N2)C(=O)C1CCN(c2ncccn2)CC1 [Example B338, tris(trifluoroacetate)]    < 6.70
O=C(Nc1ccc2cc1CCc1cncc(c1)Nc1ncc(Cl)c(n1)N2)N1CCC(c2cnccn2)C1 (stereo not drawn) [Example B313, (trifluoroacetate)]    < 6.40

// moving on: another record for pIC50
Query block: Sample O=C(Nc1ccc(N2CCOCC2)cc1)c1cc2cc(c1)Nc1nc(ncc1Cl)Nc1cccc(c1)CC2 [Example B9, trifluoroacetate] — what was its pIC50?
Result block: < 6.00

###

TARGET_OR_SYSTEM: human JAK3 (a.a. 781-1124) (Homo sapiens)
Construct: JAK3 (a.a. 781-1124); His tag (N); made in house; host or cells: insect cells (baculovirus)
RUN_DESCRIPTION: In vitro JAK kinase assay (HTRF, phosphorylation of a biotinylated peptide), JAK3
Assay type: biochemical
RECORDED_CONDITIONS: method AA1 (3 μM ATP) or AA2 (1000 μM ATP), not stated per value
Structures can show the parent of a compound that is named as a salt.
PROPERTY_LABEL: IC50

See these solved cases before continuing.
O=C(CC1CCN(C(=O)c2ccc(F)cc2F)CC1)Nc1ccc2cc1CCc1cccc(c1)Nc1ncc(Cl)c(n1)N2 [Example A204, trifluoroacetate]    > 200 nM
N#Cc1ccc(C(=O)N2CCC(CC(=O)Nc3ccc4cc3CCc3cccc(c3)Nc3ncc(Cl)c(n3)N4)CC2)cc1 [Example A186, trifluoroacetate]    > 200 nM

Next item in the queue.
Query block: Query (compound): O=C(CC1CCN(C(=O)c2cccnc2)CC1)Nc1ccc2cc1CCc1cccc(c1)Nc1ncc(Cl)c(n1)N2 [Example A184, bis(trifluoroacetate)] ; field requested: IC50
Result block: > 200 nM
